MRT last for assorted compounds
assay-overview: Multiple component PK study in rat plasma after p.o. GDDP (HPLC-MS)
measurement-conditions: Sprague-Dawley, rat, plasma, po, 0.8 g/kg
Write the answer as a number in h, unit excluded.

Please review the following examples before continuing.
compound=C[C@H]1COC2=C1C(=O)C(=O)c1c2ccc2c1CCCC2(C)C measurement_unit=h observed=0.56
compound="CC(C)=CCC[C@](C)(O[C@@H]1O[C@H](CO)[C@@H](O)[C@H](O)[C@H]1O)[C@H]1CC[C@]2(C)[C@@H]1[C@H](O)C[C@@H]1[C@@]3(C)CC[C@H](O[C@@H]4O[C@H](CO)[C@@H](O)[C@H](O)[C@H]4O[C@@H]4O[C@H](CO)[C@@H](O)[C@H](O)[C@H]4O)C(C)(C)[C@@H]3CC[C@]12C [Rd, ginsenoside Rd]" measurement_unit=h observed=10.7

For the compound CC(C)=CCC[C@](C)(O[C@@H]1O[C@H](CO)[C@@H](O)[C@H](O)[C@H]1O)[C@H]1CC[C@]2(C)[C@@H]1[C@H](O)C[C@@H]1[C@@]3(C)CC[C@H](O)C(C)(C)[C@@H]3[C@@H](O[C@@H]3O[C@H](CO)[C@@H](O)[C@H](O)[C@H]3O[C@@H]3OC[C@@H](O)[C@H](O)[C@H]3O)C[C@]12C [R1, notoginsenoside R1] , what MRT last is on record?
0.89

For the compound Cc1coc2c1C(=O)C(=O)c1c-2ccc2c(C)cccc12 , what MRT last is on record?
4.27

* * *

assay-overview: Stability tests in rat plasma (QC samples, HPLC-MS)
measurement-conditions: 24h in auto-sampler vials, spiked 1600 ng/mL, n=5
Stability: Measured for assorted compounds
Write the answer as a number in ng/mL, unit excluded.

Please review the following examples before continuing.
compound="CC(C)=CCC[C@](C)(O[C@@H]1O[C@H](CO)[C@@H](O)[C@H](O)[C@H]1O)[C@H]1CC[C@]2(C)[C@@H]1[C@H](O)C[C@@H]1[C@@]3(C)CC[C@H](O[C@@H]4O[C@H](CO)[C@@H](O)[C@H](O)[C@H]4O[C@@H]4O[C@H](CO)[C@@H](O)[C@H](O)[C@H]4O)C(C)(C)[C@@H]3CC[C@]12C [Rd, ginsenoside Rd]" measure_name="Stability: Measured" observed=1489.53
compound="Cc1cccc2c3c(ccc12)C1=C(C(=O)C3=O)[C@@H](C)CO1 [DHTS I, dihydrotanshinone I]" measure_name="Stability: Measured" observed=1644.43

In the following, a different compound is considered.
For the compound C[C@H]1COC2=C1C(=O)C(=O)c1c2ccc2c1CCCC2(C)C [CTS, cryptotanshinone] , what Stability: Measured is on record?
1852.38

* * *

assay-overview: Stability tests in rat plasma (QC samples, HPLC-MS)
measurement-conditions: three freeze-thaw cycles, rat plasma, spiked 2 ng/mL, n=5
measure-name: Stability: RE (%)
Write the answer as a number in %, unit excluded.

Please review the following examples before continuing.
molecule=Cc1coc2c1C(=O)C(=O)c1c-2ccc2c1CCCC2(C)C measure_name="Stability: RE" measurement_unit=% observed=4.94
molecule="CC(C)=CCC[C@](C)(O[C@@H]1O[C@H](CO[C@@H]2O[C@H](CO)[C@@H](O)[C@H](O)[C@H]2O)[C@@H](O)[C@H](O)[C@H]1O)[C@H]1CC[C@]2(C)[C@@H]1[C@H](O)C[C@@H]1[C@@]3(C)CC[C@H](O[C@@H]4O[C@H](CO)[C@@H](O)[C@H](O)[C@H]4O[C@@H]4O[C@H](CO)[C@@H](O)[C@H](O)[C@H]4O)C(C)(C)[C@@H]3CC[C@]12C [Rb1, ginsenoside Rb1]" measure_name="Stability: RE" measurement_unit=% observed=-12.42

In the following, a different molecule is considered.
For the molecule CC(C)=CCC[C@](C)(O[C@@H]1O[C@H](CO)[C@@H](O)[C@H](O)[C@H]1O)[C@H]1CC[C@]2(C)[C@@H]1[C@H](O)C[C@@H]1[C@@]3(C)CC[C@H](O)C(C)(C)[C@@H]3[C@@H](O[C@@H]3O[C@H](CO)[C@@H](O)[C@H](O)[C@H]3O[C@@H]3OC[C@@H](O)[C@H](O)[C@H]3O)C[C@]12C [R1, notoginsenoside R1] , what Stability: RE is on record?
7.54

* * *

assay-overview: Stability tests in rat plasma (QC samples, HPLC-MS)
measurement-conditions: 24h in auto-sampler vials, spiked 400 ng/mL, n=5
measure-name: Stability: RE

Please review the following examples before continuing.
molecule=Cc1coc2c1C(=O)C(=O)c1c-2ccc2c1CCCC2(C)C measure_name="Stability: RE" observed=16.19%
molecule=C[C@H]1COC2=C1C(=O)C(=O)c1c2ccc2c1CCCC2(C)C measure_name="Stability: RE" observed=19.61%
molecule="CC(C)=CCC[C@](C)(O[C@@H]1O[C@H](CO)[C@@H](O)[C@H](O)[C@H]1O)[C@H]1CC[C@]2(C)[C@@H]1[C@H](O)C[C@@H]1[C@@]3(C)CC[C@H](O[C@@H]4O[C@H](CO)[C@@H](O)[C@H](O)[C@H]4O[C@@H]4O[C@H](CO)[C@@H](O)[C@H](O)[C@H]4O)C(C)(C)[C@@H]3CC[C@]12C [Rd, ginsenoside Rd]" measure_name="Stability: RE" observed=1.61%

In the following, a different molecule is considered.
For the molecule CC(C)=CCC[C@](C)(O[C@@H]1O[C@H](CO)[C@@H](O)[C@H](O)[C@H]1O)[C@H]1CC[C@]2(C)[C@@H]1[C@H](O)C[C@@H]1[C@@]3(C)CC[C@H](O)C(C)(C)[C@@H]3[C@@H](O[C@@H]3O[C@H](CO)[C@@H](O)[C@H](O)[C@H]3O[C@@H]3OC[C@@H](O)[C@H](O)[C@H]3O)C[C@]12C [R1, notoginsenoside R1] , what Stability: RE is on record?
-1.06%

* * *

assay-overview: Stability tests in rat plasma (QC samples, HPLC-MS)
measurement-conditions: three freeze-thaw cycles, rat plasma, spiked 400 ng/mL, n=5
Stability: RE for assorted molecules
Give the figure together with its unit, number first.

molecule=Cc1coc2c1C(=O)C(=O)c1c-2ccc2c1CCCC2(C)C measure_name="Stability: RE" observed=19.13%
molecule=C[C@H]1COC2=C1C(=O)C(=O)c1c2ccc2c1CCCC2(C)C measure_name="Stability: RE" observed=14.45%
molecule="CC(C)=CCC[C@](C)(O[C@@H]1O[C@H](CO)[C@@H](O)[C@H](O)[C@H]1O)[C@H]1CC[C@]2(C)[C@@H]1[C@H](O)C[C@@H]1[C@@]3(C)CC[C@H](O[C@@H]4O[C@H](CO)[C@@H](O)[C@H](O)[C@H]4O[C@@H]4O[C@H](CO)[C@@H](O)[C@H](O)[C@H]4O)C(C)(C)[C@@H]3CC[C@]12C [Rd, ginsenoside Rd]" measure_name="Stability: RE" observed=9.50%
molecule="CC(C)=CCC[C@](C)(O[C@@H]1O[C@H](CO)[C@@H](O)[C@H](O)[C@H]1O)[C@H]1CC[C@]2(C)[C@@H]1[C@H](O)C[C@@H]1[C@@]3(C)CC[C@H](O)C(C)(C)[C@@H]3[C@@H](O[C@@H]3O[C@H](CO)[C@@H](O)[C@H](O)[C@H]3O[C@@H]3OC[C@@H](O)[C@H](O)[C@H]3O)C[C@]12C [R1, notoginsenoside R1]" measure_name="Stability: RE" observed=-1.18%
molecule=Cc1coc2c1C(=O)C(=O)c1c-2ccc2c(C)cccc12 measure_name="Stability: RE" observed=14.75%

For the molecule CC(C)=CCC[C@](C)(O[C@@H]1O[C@H](CO[C@@H]2O[C@H](CO)[C@@H](O)[C@H](O)[C@H]2O)[C@@H](O)[C@H](O)[C@H]1O)[C@H]1CC[C@]2(C)[C@@H]1[C@H](O)C[C@@H]1[C@@]3(C)CC[C@H](O[C@@H]4O[C@H](CO)[C@@H](O)[C@H](O)[C@H]4O[C@@H]4O[C@H](CO)[C@@H](O)[C@H](O)[C@H]4O)C(C)(C)[C@@H]3CC[C@]12C [Rb1, ginsenoside Rb1] , what Stability: RE is on record?
-1.43%

For the molecule Cc1cccc2c3c(ccc12)C1=C(C(=O)C3=O)[C@@H](C)CO1 [DHTS I, dihydrotanshinone I] , what Stability: RE is on record?
9.49%

* * *

assay-overview: Stability tests in rat plasma (QC samples, HPLC-MS)
measurement-conditions: Placing plasma for 6h at 4°C, spiked 400 ng/mL, n=5
Returns class 1 if the recorded Stability: RE is greater than or equal to 10%, and class 0 otherwise.

For orientation, consider the following solved cases.
compound=Cc1coc2c1C(=O)C(=O)c1c-2ccc2c1CCCC2(C)C label_value="class 1"
compound="CC(C)=CCC[C@](C)(O[C@@H]1O[C@H](CO[C@@H]2O[C@H](CO)[C@@H](O)[C@H](O)[C@H]2O)[C@@H](O)[C@H](O)[C@H]1O)[C@H]1CC[C@]2(C)[C@@H]1[C@H](O)C[C@@H]1[C@@]3(C)CC[C@H](O[C@@H]4O[C@H](CO)[C@@H](O)[C@H](O)[C@H]4O[C@@H]4O[C@H](CO)[C@@H](O)[C@H](O)[C@H]4O)C(C)(C)[C@@H]3CC[C@]12C [Rb1, ginsenoside Rb1]" label_value="class 0"

I'd appreciate it if you could say whether Cc1cccc2c3c(ccc12)C1=C(C(=O)C3=O)[C@@H](C)CO1 [DHTS I, dihydrotanshinone I] has Stability: RE at least equal to 10%.
class 1

I'd appreciate it if you could say whether C[C@H]1COC2=C1C(=O)C(=O)c1c2ccc2c1CCCC2(C)C has Stability: RE at least equal to 10%.
class 0

I'd appreciate it if you could say whether CC(C)=CCC[C@](C)(O[C@@H]1O[C@H](CO)[C@@H](O)[C@H](O)[C@H]1O)[C@H]1CC[C@]2(C)[C@@H]1[C@H](O)C[C@@H]1[C@@]3(C)CC[C@H](O)C(C)(C)[C@@H]3[C@@H](O[C@@H]3O[C@H](CO)[C@@H](O)[C@H](O)[C@H]3O[C@@H]3OC[C@@H](O)[C@H](O)[C@H]3O)C[C@]12C [R1, notoginsenoside R1] has Stability: RE at least equal to 10%.
class 0

Reference source: paper PMC6308302
